assay-notes: AUCt in rat at 3 mg/kg, po
Format: ADME, organism-based
measurement-setup: in vivo
measure-name: AUCt (µM·h)
The reply should contain only the number, in µM·h.

Per the records, this molecule ( "C#CCOc1cnc(C(=O)Nc2cc(F)c(F)c([C@@]3(C)N=C(N)S[C@@]4(COC)C[C@H]43)c2)cn1" ) has AUCt equal to 2.4

###

assay-notes: Stability in human liver microsomes at 1 uM measured after 30 mins in presence of NADPH
Assay type: ADME, Microsome
measurement-setup: read-out: Stability
Answer each item with its documented microsomal CLint at 1 µM.
The reply should contain only the number, in µL/min/mg.

Per the records, this compound ( "C#CCOc1cnc(C(=O)Nc2cc(F)c(F)c([C@@]3(C)N=C(N)S[C@@]4(COC)C[C@H]43)c2)cn1" ) has microsomal CLint at 1 µM equal to 41

Per the records, this compound ( "C#CCOc1cnc(C(=O)Nc2cc(F)c(F)c([C@@]3(C)N=C(N)S[C@@]4(CF)C[C@H]43)c2)cn1" ) has microsomal CLint at 1 µM equal to 76

Per the records, this compound ( "COC[C@]12C[C@H]1[C@@](C)(c1cc(NC(=O)c3cnc(OCCC(F)(F)F)cn3)cc(F)c1F)N=C(N)S2" ) has microsomal CLint at 1 µM equal to 29

###

assay-notes: Half life in monkey at 1 mg/kg, iv
Format: ADME, organism-based, Macaca mulatta
measurement-setup: rhesus monkey, in vivo
measure-name: half-life
Just so you know, I need the unit written after the number.

Per the records, this compound ( "C#CCOc1cnc(C(=O)Nc2cc(F)c(F)c([C@@]3(C)N=C(N)S[C@@]4(COC)C[C@H]43)c2)cn1" ) has half-life equal to 8.3 h

###

assay-notes: AUCt in cynomolgus monkey at 3 mg/kg, po
Assay type: ADME, organism-based, Macaca fascicularis
measurement-setup: in vivo
measure-name: AUCt (µM·h)
The reply should contain only the number, in µM·h.

Per the records, this compound ( "C#CCOc1cnc(C(=O)Nc2cc(F)c(F)c([C@@]3(C)N=C(N)S[C@@]4(COC)C[C@H]43)c2)cn1" ) has AUCt equal to 2.3

###

assay-notes: Stability in monkey liver microsomes at 0.5 uM measured after 30 mins in presence of NADPH
Assay type: ADME, Macaca mulatta, Microsome
measurement-setup: rhesus monkey, read-out: Stability
measure-name: microsomal CLint at 0.5 µM (µL/min/mg)
The reply should contain only the number, in µL/min/mg.

Per the records, this molecule ( "C#CCOc1cnc(C(=O)Nc2cc(F)c(F)c([C@@]3(C)N=C(N)S[C@@]4(COC)C[C@H]43)c2)cn1" ) has microsomal CLint at 0.5 µM equal to 146

###

assay-notes: Oral bioavailability in Beagle dog at 10 mg/kg
Format: ADME, organism-based, Canis lupus familiaris
measurement-setup: in vivo
measure-name: bioavailability
Just so you know, I need the unit written after the number.

Per the records, this compound ( "C#CCOc1cnc(C(=O)Nc2cc(F)c(F)c([C@@]3(C)N=C(N)S[C@@]4(COC)C[C@H]43)c2)cn1" ) has bioavailability equal to 100%

###

assay-notes: Volume of distribution at steady state in monkey at 1 mg/kg, iv
Assay type: ADME, organism-based, Macaca mulatta
measurement-setup: rhesus monkey, in vivo, read-out: Vdss
measure-name: Vd (L/kg)
The reply should contain only the number, in L/kg.

Per the records, this compound ( "C#CCOc1cnc(C(=O)Nc2cc(F)c(F)c([C@@]3(C)N=C(N)S[C@@]4(COC)C[C@H]43)c2)cn1" ) has Vd equal to 17

###

assay-notes: AUCt in Beagle dog at 10 mg/kg, po
Type: ADME, organism-based, Canis lupus familiaris
measurement-setup: in vivo
measure-name: AUCt (µM·h)
The reply should contain only the number, in µM·h.

Per the records, this compound ( "C#CCOc1cnc(C(=O)Nc2cc(F)c(F)c([C@@]3(C)N=C(N)S[C@@]4(COC)C[C@H]43)c2)cn1" ) has AUCt equal to 22
